# Tested On: CD137 expressed on the cell surface of HT1080_4-1BB cells (human, UniProt Q07011 24-255); further: test concentration or dose not given here
# Sequence (Q07011 24-255): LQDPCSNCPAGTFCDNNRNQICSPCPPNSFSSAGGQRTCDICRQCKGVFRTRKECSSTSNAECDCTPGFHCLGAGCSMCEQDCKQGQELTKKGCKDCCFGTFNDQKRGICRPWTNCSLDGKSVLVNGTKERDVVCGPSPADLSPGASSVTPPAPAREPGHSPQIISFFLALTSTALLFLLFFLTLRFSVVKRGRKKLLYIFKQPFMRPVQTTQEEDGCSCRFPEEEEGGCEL
# Procedure Details: cell-based or functional assay
Consider the following binders; for each one, report its Functional assay Cross-linked by F(ab′)2 fragment IL-8.
Please answer using a numeric value trailed by its unit.

Notebook: P018.S.13.A.C02 (antibody, V domains shown, V regions on human Ig constant parts; also called AB137_6) VH: QSVEESGGRLVTPGTPLTLTCTVSGFSLSSYAMSWVRQAPGKGLEWIGIISTSGITYYASWAKGRFTISKTSTMVDLKITSPTTEDTATYFCARLNGFDDYVRYFDFWGLGTLVTVSS VL: AIELTQTPSSVSAAVGGTVTINCQASESIASNLAWYQQKPGQPPKLLIYAASYLASGVPSRFKGSGSGTEYTLTISGVQSADAATYYCQSAFYVSSSDNAFGGGTEVVVK , Functional assay Cross-linked by F(ab′)2 fragment IL-8 read as 1.4 abs. corr.

Notebook: P018.S.08.A.A04 (antibody, V domains shown, V regions on human Ig constant parts; also called AB137_1) VH: QSVEESGGRLVTPGTPLTLTCTVSGFSLSSYAVSWVRQAPGKGLEWIGVIWNNGATHYATWAKGRFTISKASTTVDLKVTSPTTEDTATYFCARSANDAWSTYSDLWGQGTLVTVSS VL: DIVMTQTPASVEAAVGGTVTIKCQASQTITNYLSWYQQKPGQPPKLLIYKASTLTSGVSSRFKGSGSGTEFTLTISDLESDDAATYYCQNYYYGSSSGYGFVFGGGTEVVVK , Functional assay Cross-linked by F(ab′)2 fragment IL-8 read as 1.55 abs. corr.

Notebook: P018.S.08.A.F03 (antibody, V domains shown, V regions on human Ig constant parts; also called AB137_3) VH: QSVEESGGRLVTPGTPLTLTCTASGFTISSYHMIWVRQAPGEGLEWIGDIYGGTATTDYASWAKGRFTISKTSTTVDLKMTSLTTEDTATYFCARARYSGGSYANYVFNLWGQGTLVTVSS VL: DIVMTQTPASVEAAVGGTVTIKCQASQSISSYLAWYQQKPGQPPKLLIYRTSTLESGVPSRFKGSGSGTEFTLTISDLESADAATYYCQGYDWSSSNRYDNTFGGGTEVVVK , Functional assay Cross-linked by F(ab′)2 fragment IL-8 read as 1.36 abs. corr.
